# Tested on: Lysinibacillus sphaericus
# METHOD: Antibacterial activity against Lysinibacillus sphaericus MTCC 11 assessed as growth arrest at 37 degC for 24 hr
# Format: functional
# CONDITION LABEL: MTCC 11, 24 h
VALUE KIND: MBC (µg/mL)
API: value field is a number in µg/mL; no unit string.

COc1ccc(Cc2ccc(OC)c(C3SC4C(=NN(C)C4c4ccc(F)cc4)N3c3ccc([N+](=O)[O-])cc3)c2)cc1C1SC2C(=NN(C)C2c2ccc(F)cc2)N1c1ccc([N+](=O)[O-])cc1 (stereo not given); 25
COc1ccc(N2N=C3C(SC(c4cc(Cc5ccc(OC)c(C6SC7C(=NN(c8ccc(OC)cc8)C7c7ccc(F)cc7)N6c6ccc(Cl)cc6)c5)ccc4OC)N3c3ccc(Cl)cc3)C2c2ccc(F)cc2)cc1 (stereo not given); 50

Provide MBC, recorded with Lysinibacillus sphaericus, of COc1ccc(Cc2ccc(OC)c(C3SC4C(=NN(c5ccc(Cl)cc5)C4c4ccc(F)cc4)N3c3ccc(C)cc3)c2)cc1C1SC2C(=NN(c3ccc(Cl)cc3)C2c2ccc(F)cc2)N1c1ccc(C)cc1 (stereo not given)
25

Please indicate recorded MBC of COc1ccc(Cc2ccc(OC)c(C3SC4C(=NN(c5ccccc5)C4c4ccc(F)cc4)N3c3ccc(Cl)cc3)c2)cc1C1SC2C(=NN(c3ccccc3)C2c2ccc(F)cc2)N1c1ccc(Cl)cc1 (stereo not given) measured with Lysinibacillus sphaericus.
50

Report MBC under test system Lysinibacillus sphaericus for COc1ccc(Cc2ccc(OC)c(C3SC4C(=NN(C(C)C)C4c4ccc(F)cc4)N3c3ccc(C)cc3)c2)cc1C1SC2C(=NN(C(C)C)C2c2ccc(F)cc2)N1c1ccc(C)cc1 (stereo not given) .
50

----------
# Test system: Klebsiella aerogenes
# METHOD: Antibacterial activity against Enterobacter aerogenes MTCC 39 assessed as inhibition zones at 300 ug/disk at 37 degC for 24 hr
# Format: functional
# CONDITION LABEL: MTCC 39, 24 h, read-out: IZ
VALUE KIND: zone of inhibition at 300 µg/disc (mm)
Just the number in mm, nothing appended.

Give zone of inhibition at 300 µg/disc; test system Klebsiella aerogenes; compound COc1ccc(N2N=C3C(SC(c4cc(Cc5ccc(OC)c(C6SC7C(=NN(c8ccc(OC)cc8)C7c7ccc(F)cc7)N6c6ccc(C)cc6)c5)ccc4OC)N3c3ccc(C)cc3)C2c2ccc(F)cc2)cc1 (stereo not drawn)
20

State, for Klebsiella aerogenes, measured zone of inhibition at 300 µg/disc of the compound listed here: COc1ccc(Cc2ccc(OC)c(C3SC4C(=NN(c5ccc(Cl)cc5)C4c4ccc(F)cc4)N3c3ccc([N+](=O)[O-])cc3)c2)cc1C1SC2C(=NN(c3ccc(Cl)cc3)C2c2ccc(F)cc2)N1c1ccc([N+](=O)[O-])cc1 (stereo not drawn)
20

Send back Klebsiella aerogenes zone of inhibition at 300 µg/disc of COc1ccc(Cc2ccc(OC)c(C3SC4C(=NN(c5ccccc5)C4c4ccc(F)cc4)N3c3ccc([N+](=O)[O-])cc3)c2)cc1C1SC2C(=NN(c3ccccc3)C2c2ccc(F)cc2)N1c1ccc([N+](=O)[O-])cc1 (stereo not drawn) only.
24

----------
Measured zone of inhibition at 300 µg/disc by item
# Test system: Staphylococcus aureus
# METHOD: Antibacterial activity against Staphylococcus aureus MTCC 96 assessed as inhibition zones at 300 ug/disc at 37 degC for 24 hr
# Assay type: functional
# CONDITION LABEL: MTCC 96, 24 h, read-out: IZ

Consider the following illustrative entries.
COc1ccc(Cc2ccc(OC)c(C3SC4C(=NN(C(C)C)C4c4ccc(F)cc4)N3c3ccc(C)cc3)c2)cc1C1SC2C(=NN(C(C)C)C2c2ccc(F)cc2)N1c1ccc(C)cc1 (stereo not given); 23 mm
COc1ccc(Cc2ccc(OC)c(C3SC4C(=NN(Cc5ccccc5)C4c4ccc(F)cc4)N3c3ccc(C)cc3)c2)cc1C1SC2C(=NN(Cc3ccccc3)C2c2ccc(F)cc2)N1c1ccc(C)cc1 (stereo not given); 24 mm
COc1ccc(Cc2ccc(OC)c(C3SC4C(=NN(c5ccccc5)C4c4ccc(F)cc4)N3c3ccc([N+](=O)[O-])cc3)c2)cc1C1SC2C(=NN(c3ccccc3)C2c2ccc(F)cc2)N1c1ccc([N+](=O)[O-])cc1 (stereo not given); 20 mm

Find the measured zone of inhibition at 300 µg/disc of COc1ccc(Cc2ccc(OC)c(C3SC4C(=NN(c5ccccc5)C4c4ccc(F)cc4)N3c3ccc(C)cc3)c2)cc1C1SC2C(=NN(c3ccccc3)C2c2ccc(F)cc2)N1c1ccc(C)cc1 (stereo not given) and report it.
27 mm

Check the records and state zone of inhibition at 300 µg/disc for COc1ccc(Cc2ccc(OC)c(C3SC4C(=NN(C)C4c4ccc(F)cc4)N3c3ccc(Cl)cc3)c2)cc1C1SC2C(=NN(C)C2c2ccc(F)cc2)N1c1ccc(Cl)cc1 (stereo not given)
20 mm
